# Test target: human MGL from HeLa cells (Homo sapiens (Human))
# Sequence (Q99685 whole entry): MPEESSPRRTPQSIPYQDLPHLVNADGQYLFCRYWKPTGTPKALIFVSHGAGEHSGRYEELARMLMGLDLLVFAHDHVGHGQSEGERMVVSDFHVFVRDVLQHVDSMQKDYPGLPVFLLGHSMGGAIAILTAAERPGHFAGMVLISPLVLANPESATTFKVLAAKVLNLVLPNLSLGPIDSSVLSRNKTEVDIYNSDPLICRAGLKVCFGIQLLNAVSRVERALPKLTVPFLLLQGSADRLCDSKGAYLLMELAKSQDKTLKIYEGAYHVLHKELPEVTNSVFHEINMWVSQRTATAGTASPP
# Protocol: MGL in vitro activity assay ([glycerol-1,3-3H]-oleoyl glycerol hydrolysis, activated carbon filtration)
# Particulars: 300 nM [Glycerol-1,3-3H]-oleoyl glycerol, one hour
Readout name: log10 IC50 (log10 of the value in nM)
All values: base-10 log of IC50 in nM.

Here are 5 molecules together with their reported answers.
Cn1ncc2ccc(OC3CCC4(CC3)CN(C(=O)[C@H]3C[C@@](C)(O)C3)C4)nc21 : 2.16
C[C@]1(O)C[C@@H](C(=O)N2CC3(CC[C@H](c4ccc(C5CC5)cc4)C3)C2)C1 : 0.99
Cc1ccc(OC2CC3(CCN(C(=O)[C@H]4C[C@@](C)(O)C4)CC3)C2)cc1 : 2.52
Cc1c(CC2CC3(C2)CN(C(=O)[C@H]2C[C@@](C)(O)C2)C3)cccc1C(F)(F)F : 0.48
CC(C)(C)c1cc(C2CCC3(CC2)CN(C(=O)[C@H]2C[C@@](C)(O)C2)C3)ccn1 : 2.22

Just so you know, measured log10 IC50 for `Cc1cccc(OC2CCC3(CC2)CN(C(=O)[C@H]2C[C@@](C)(O)C2)C3)c1C` came out at 1.30

Just so you know, measured log10 IC50 for `CC(C)(C)c1ccc(C2CC3(C2)CN(C(=O)[C@H]2C[C@@](C)(O)C2)C3)cc1` came out at 2.17

Just so you know, measured log10 IC50 for C[C@]1(O)C[C@@H](C(=O)N2CC3(CC[C@H](c4ccc(OC(F)(F)F)cc4)C3)C2)C1 (stereo in doubt) came out at 1.00

Just so you know, measured log10 IC50 for Cc1ccc(C2CCC3(C2)CN(C(=O)[C@H]2C[C@@](C)(O)C2)C3)cc1C(F)F (mixture of isomers) came out at 1.43

Just so you know, measured log10 IC50 for `CC(C)(C)n1cnc(C2CCC3(CC2)CN(C(=O)[C@H]2C[C@@](C)(O)C2)C3)c1` came out at 3.14

Just so you know, measured log10 IC50 for C[C@]1(O)C[C@@H](C(=O)N2CC3(CC[C@@H](Cc4cccc(OC(F)(F)F)c4)C3)C2)C1 (racemic) came out at 0.92
